TARGET OF ASSAY: yeast Gal4-DNA binding domain fused to the ligand binding domain of human RORγ (Homo sapiens, UniProt P51449)
Construct: host or cells: HEK293t
Sequence (P51449 269-508 limits assumed): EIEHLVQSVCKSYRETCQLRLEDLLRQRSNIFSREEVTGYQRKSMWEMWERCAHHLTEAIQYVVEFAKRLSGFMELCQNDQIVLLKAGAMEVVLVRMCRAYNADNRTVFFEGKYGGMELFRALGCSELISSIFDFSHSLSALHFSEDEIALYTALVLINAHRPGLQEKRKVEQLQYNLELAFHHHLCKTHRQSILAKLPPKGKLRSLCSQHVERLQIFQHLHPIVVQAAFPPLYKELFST
METHOD NOTES: RORγ Reporter Assay (Gal4)
Type: cell-based
ASSAY CONTEXT: RORγ Reporter Assay (Gal4) at 1 μM; values given as lower bounds of ranges
Experimental: The activity of the compounds was evaluated using a Fluorescence Polarization (FP) Assay and, in most cases, a Th17 Assay and/or RORγ Reporter assay (also referred to as Gal4 assay). The FP assay is an in vitro assay monitoring binding within the ligand binding pocket. The RORγ and the Th17 assays are both cell-based assays monitoring functional activity of the compound assayed. […]
Exercise: state measured Gal4 activity range @ 1 μM (% inhibition) for each of the molecules provided.

For every listed record, write down its Gal4 activity range @ 1 μM (% inhibition).
1. Fc1c(NCC2(F)CCOCC2)ncnc1N1CCOC[C@@H]1c1ccc(C(F)(F)F)cc1
2. NC(=O)Cc1ccc(CNc2ncnc(N3CCCCC3c3ccc(C(F)(F)F)cc3)c2F)cc1 (centres unmarked)
3. CC(C)CC(Nc1ncnc(N2CCCC2c2ccc(C(F)(F)F)cc2)c1F)c1nnn[nH]1 (centres unmarked)
4. CS(=O)(=O)N1CCC(F)(CNc2ncnc(N3CCOC[C@@H]3c3ccc(C(F)(F)F)cc3)c2F)CC1
5. COc1cccc(CNc2ncnc(N3CCCC3c3ccc(C(F)(F)F)cc3)c2F)c1OC (centres unmarked)
6. CC(C)(C)C[C@@H](Nc1ncnc(N2CCCC2c2ccc(C(F)(F)F)cc2)c1F)C1CNCCO1 (some centres unmarked)
7. O=C1CN(c2ccc(CNc3ncnc(N4CCCC4c4ccc(C(F)(F)F)cc4)c3F)cc2)CCN1 (centres unmarked)
8. COCCNS(=O)(=O)c1ccc(CNc2ncnc(N3CCC[C@@H]3c3ccc(C(F)(F)F)cc3)c2F)cc1

Reply:
>80 % inhibition
>50 % inhibition
>20 % inhibition
>80 % inhibition
>50 % inhibition
>20 % inhibition
>20 % inhibition
>80 % inhibition

For every listed record, write down its Gal4 activity range @ 1 μM (% inhibition).
1. O=C(O)CC1CCC(CNc2ncnc(N3CCOC[C@@H]3c3ccc(C(F)(F)F)cc3)c2F)CC1 (some centres unmarked)
2. COc1ccc(Cn2ccc3c(N4CCCC4c4ccc(C(F)(F)F)cc4)ncnc32)cc1OC (centres unmarked)
3. NC(=O)Cc1ccc(COc2ncnc(N3CCCC3c3ccc(C(F)(F)F)nc3)c2F)cc1 (centres unmarked)

Reply:
1: >80 % inhibition; 2: >50 % inhibition; 3: >20 % inhibition

The origin of these recorded values is patent US10689383B2.
